- experimentalProtocol: BSK_3C_SRB: Viability Assessment in the BioMAP Diversity Plus: 3C Assay (AID 2283023);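 note: cells read 24 h after compound dosing; fitted both ways against DMSO so a hit may be signal rise or drop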
- measurementContext: primary human endothelial cells (HUVEC)
Calls of active or inactive are those of the source. Rule for the calls: active = hit-call score of the fitted dose curve at least 0.9, where 1 is the maximum; inactive = score below 0.9.
Labels: active, inactive

compound	class
CC1(C)C(C=C(Cl)Cl)C1C(=O)OC(C#N)c1ccc(F)c(Oc2ccccc2)c1 (stereo not drawn)	active
CCOC1Oc2ccc(OS(C)(=O)=O)cc2C1(C)C (stereo not drawn)	active
Cc1[nH]c(=O)n(C(C)(C)C)c(=O)c1Cl	inactive

====

- subjectOfTest: Transcriptional activator Myb (Homo sapiens) (UniProt P10242)
- Sequence (P10242 whole entry, looked up): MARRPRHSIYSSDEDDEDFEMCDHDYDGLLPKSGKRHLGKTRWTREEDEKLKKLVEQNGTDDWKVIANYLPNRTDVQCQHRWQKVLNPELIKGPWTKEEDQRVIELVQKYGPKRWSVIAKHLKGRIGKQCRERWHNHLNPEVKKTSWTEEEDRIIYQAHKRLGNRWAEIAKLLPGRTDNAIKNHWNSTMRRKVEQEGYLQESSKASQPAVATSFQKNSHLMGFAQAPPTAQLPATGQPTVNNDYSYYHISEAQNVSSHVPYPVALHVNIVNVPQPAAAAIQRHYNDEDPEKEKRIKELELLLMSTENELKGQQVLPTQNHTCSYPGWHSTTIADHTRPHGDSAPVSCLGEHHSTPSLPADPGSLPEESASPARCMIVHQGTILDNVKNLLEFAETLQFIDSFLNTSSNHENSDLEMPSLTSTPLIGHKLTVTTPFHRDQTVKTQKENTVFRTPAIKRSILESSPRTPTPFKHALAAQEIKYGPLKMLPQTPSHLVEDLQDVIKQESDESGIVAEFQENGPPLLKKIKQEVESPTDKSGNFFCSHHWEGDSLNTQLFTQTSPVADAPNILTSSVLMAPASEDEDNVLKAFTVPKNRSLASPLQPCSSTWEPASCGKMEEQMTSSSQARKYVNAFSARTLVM
- experimentalProtocol: ATG_Myb_CIS: Attagene CIS-FACTORIAL HepG2 Assay for human Myeloblastosis (Myb) Proto-Oncogene Transcription Factor (AID 2282986)
- measurementContext: HepG2 Attagene CIS-FACTORIAL Myb reporter transcription; actives raise or lower the signal
The source made the active and inactive calls. Rule for the calls: active = hit-call score of the fitted dose curve at least 0.9, where 1 is the maximum; inactive = score below 0.9.

compound	outcome
CCOc1nc(NC)nc(NC(=O)NS(=O)(=O)c2ccccc2C(=O)OC)n1	inactive
CN1CSC(=S)N(C)C1	inactive
CCCN(CCOc1c(Cl)cc(Cl)cc1Cl)C(=O)n1ccnc1	inactive
CCC(C)(C)C(=O)OC1=C(c2ccc(Cl)cc2Cl)C(=O)OC12CCCCC2	inactive
CCC(C)Nc1c([N+](=O)[O-])cc(C(C)(C)C)cc1[N+](=O)[O-] (stereo unspecified)	inactive
ClC1C(Cl)C(Cl)C(Cl)C(Cl)C1Cl (stereo unspecified)	inactive

====

- experimentalProtocol: Tanguay_ZF_120hpf_YSE_legacy: (Legacy) Oregon State University Tanguay Lab 120 Hour Post-fertilization zebrafish Assay for Yolk Sac Edema (AID 2283634)
Results filed as inconclusive are left out. Calls of active or inactive are those of the source. Rule for the calls: active = hit-call score of the fitted dose curve at least 0.9, where 1 is the maximum; inconclusive = response in the unintended direction; inactive = score below 0.9.
Outcome codes: y (active), n (inactive)

compound	class
O=C(O)CCCOc1ccc(Cl)cc1Cl	y
CC(C)OC(=O)Nc1cccc(Cl)c1	n
O=C1c2ccccc2C(=O)N1SC(Cl)(Cl)Cl	n
COP(=O)(OC)OC=C(Cl)Cl	n
CNC(=O)Oc1ccccc1OC(C)C	n
O=C(Nc1ccccc1)Nc1cnns1	n
CC(C)(C)C(O)/C(=C\c1ccc(Cl)cc1Cl)n1cncn1 (stereo not drawn)	y
CCC(C)(NC(=O)c1cc(Cl)c(C)c(Cl)c1)C(=O)CCl (stereo not drawn)	y

====

- experimentalProtocol: CEETOX_H295R_OHPREG: CeeTox H295R High-throughput Steroidogenesis Assay for OH-Pregnenolone (OHPREG) (AID 2283434)
- measurementContext: actives raise or lower the signal
The source made the active and inactive calls. The calls were made as follows: active = hit-call score of the fitted dose curve at least 0.9, where 1 is the maximum; inactive = score below 0.9.
Classes used: class 1 (active), class 0 (inactive)

compound	class
CNC(=O)CSP(=S)(OC)OC	class 0
Clc1ccccc1-c1nnc(-c2ccccc2Cl)nn1	class 0
O=C(O)COc1ccc(Cl)cc1Cl	class 0
CC[C@H](C)[C@H]1O[C@]2(C=C[C@@H]1C)C[C@@H]1C[C@@H](C/C=C(\C)[C@@H](O[C@H]3C[C@H](OC)[C@@H](O[C@H]4C[C@H](OC)[C@@H](O)[C@H](C)O4)[C@H](C)O3)[C@@H](C)/C=C/C=C3\CO[C@@H]4[C@H](O)C(C)=C[C@@H](C(=O)O1)[C@]34O)O2 (tested in a mixture with another compound)	class 0
Oc1ccc(Cl)cc1Cc1ccccc1	class 0
CCCN(CCOc1c(Cl)cc(Cl)cc1Cl)C(=O)n1ccnc1	class 1
COP(=S)(OC)Oc1ccc(SC)c(C)c1	class 0
CCN(CC)C(=O)SCc1ccc(Cl)cc1	class 1
COP(=S)(OC)Oc1ccc([N+](=O)[O-])cc1	class 0
CNC(=O)/C=C(\C)OP(=O)(OC)OC	class 0
CC(C)OC(=O)Nc1cccc(Cl)c1	class 0
O=C(NC(=O)c1c(F)cccc1F)Nc1ccc(OC(F)(F)C(F)OC(F)(F)F)c(Cl)c1 (stereo not given)	class 0
N#Cc1c(Cl)c(Cl)c(Cl)c(C#N)c1Cl	class 0
CCCN(CCC)c1c([N+](=O)[O-])cc(C(F)(F)F)cc1[N+](=O)[O-]	class 0
CCC(C)Nc1c([N+](=O)[O-])cc(C(C)(C)C)cc1[N+](=O)[O-] (stereo not given)	class 1

====

- experimentalProtocol: APR_HepG2_MicrotubuleCSK_24hr: Apredica 24-hour HepG2 Assay for Microtubule CSK Stabilty (AID 2282909)
- measurementContext: HepG2 microtubule cytoskeleton imaging, actives raise or lower the signal
- Method: APR_HepG2_24hr is a cell-based, multiplexed-readout assay that uses HepG2, a human liver cell line, with measurements taken at 24 hours after chemical dosing in a 384-well plate.APR_HepG2_MicrotubuleCSK_24hr is one of 10 assay component(s) measured or calculated from the APR_HepG2_24hr assay. […] This assay endpoint, APR_HepG2_MicrotubuleCSK_24hr, was analyzed with bidirectional fitting relative to DMSO as the negative control and baseline of activity. […]
Calls of active or inactive are those of the source. The calls were made as follows: active = hit-call score of the fitted dose curve at least 0.9, where 1 is the maximum; inactive = score below 0.9.
Labels: 1 (yes) (active), 0 (no) (inactive)

compound	class
CCOC1Oc2ccc(OS(C)(=O)=O)cc2C1(C)C (centres undefined)	0 (no)
C#CCN1C(=O)COc2cc(F)c(N3C(=O)C4=C(CCCC4)C3=O)cc21	0 (no)
[2H]C1([2H])[n+]2ccccc2-c2cccc[n+]2C1([2H])[2H]	0 (no)
OCCOc1ccccc1	0 (no)
CCC(C)Nc1c([N+](=O)[O-])cc(C(C)(C)C)cc1[N+](=O)[O-] (centres undefined)	1 (yes)
O=[N+]([O-])c1c(Cl)c(Cl)c(Cl)c(Cl)c1Cl	0 (no)
CC(C)OC(=O)Nc1cccc(Cl)c1	0 (no)
COP(=O)(OC)OC=C(Cl)Cl	0 (no)
CCS(=O)(=O)c1cccnc1S(=O)(=O)NC(=O)Nc1nc(OC)cc(OC)n1	0 (no)
CCOCN(C(=O)CCl)c1c(C)cccc1CC	1 (yes)
Clc1ccccc1-c1nnc(-c2ccccc2Cl)nn1	0 (no)
COC(=O)c1ccccc1S(=O)(=O)NC(=O)Nc1nc(C)nc(OC)n1	0 (no)
CCCN(CCC)c1c([N+](=O)[O-])cc(C(F)(F)F)cc1[N+](=O)[O-]	0 (no)
ClC1C(Cl)C(Cl)C(Cl)C(Cl)C1Cl (centres undefined)	0 (no)
CC(C)(C)C(O)/C(=C\c1ccc(Cl)cc1Cl)n1cncn1 (centres undefined)	0 (no)
Cc1[nH]c(=O)n(C(C)(C)C)c(=O)c1Cl	0 (no)
COP(=S)(OC)Oc1ccc(SC)c(C)c1	0 (no)
CCOc1nc(NC)nc(NC(=O)NS(=O)(=O)c2ccccc2C(=O)OC)n1	0 (no)
CCc1ccc(C(=O)NN(C(=O)c2cc(C)cc(C)c2)C(C)(C)C)cc1	0 (no)
CC1(c2ccc(Oc3ccccc3)cc2)OC(=O)N(Nc2ccccc2)C1=O (centres undefined)	1 (yes)
COC(=O)c1ccccc1CS(=O)(=O)NC(=O)Nc1nc(OC)cc(OC)n1	0 (no)
CNC(=O)CSP(=S)(OC)OC	0 (no)
O=C(Nc1ccccc1)Nc1cnns1	1 (yes)
COC(=O)c1ccccc1S(=O)(=O)NC(=O)N(C)c1nc(C)nc(OC)n1	0 (no)
N#Cc1c(Cl)c(Cl)c(Cl)c(C#N)c1Cl	0 (no)
CCN(CC)C(=O)SCc1ccc(Cl)cc1	0 (no)
N#CN	0 (no)
CCCN(CCOc1c(Cl)cc(Cl)cc1Cl)C(=O)n1ccnc1	0 (no)
O=[N+]([O-])/N=C1\NCCN1Cc1ccc(Cl)nc1	0 (no)

====

- experimentalProtocol: ATG_M_19_TRANS: Attagene TRANS-FACTORIAL HepG2 Assay for M19 Transcription Factor (Internal Marker) (AID 2282974)
- measurementContext: HepG2 Attagene TRANS-FACTORIAL M19 internal marker reporter
Records with an inconclusive call do not appear. The source made the active and inactive calls. How the source made its calls: active means hit-call score of the fitted dose curve at least 0.9, where 1 is the maximum; inconclusive means response in the unintended direction; inactive means score below 0.9.
parameterMeasured: outcome

compound	result
O=C(Nc1ccccc1)Nc1cnns1	inactive
CCN(CC)C(=O)SCc1ccc(Cl)cc1	inactive
CC[C@H](C)[C@H]1O[C@]2(C=C[C@@H]1C)C[C@@H]1C[C@@H](C/C=C(\C)[C@@H](O[C@H]3C[C@H](OC)[C@@H](O[C@H]4C[C@H](OC)[C@@H](O)[C@H](C)O4)[C@H](C)O3)[C@@H](C)/C=C/C=C3\CO[C@@H]4[C@H](O)C(C)=C[C@@H](C(=O)O1)[C@]34O)O2 (tested in a mixture with another compound)	inactive
[2H]C1([2H])[n+]2ccccc2-c2cccc[n+]2C1([2H])[2H]	inactive
ClC1C(Cl)C(Cl)C(Cl)C(Cl)C1Cl (configuration not stated)	inactive
CCCN(CCOc1c(Cl)cc(Cl)cc1Cl)C(=O)n1ccnc1	inactive
Oc1cc(Cl)ccc1Oc1ccc(Cl)cc1Cl	inactive
CCC(C)(C)C(=O)OC1=C(c2ccc(Cl)cc2Cl)C(=O)OC12CCCCC2	inactive
COc1cc(OC)nc(NC(=O)NS(=O)(=O)c2cc(NC=O)ccc2C(=O)N(C)C)n1	inactive
Cc1[nH]c(=O)n(C(C)(C)C)c(=O)c1Cl	inactive
CCOC1Oc2ccc(OS(C)(=O)=O)cc2C1(C)C (configuration not stated)	inactive
CNC(=O)Oc1ccccc1OC(C)C	inactive
